Entry source: ChEMBL document CHEMBL1150513

assay: Aqueous solvolysis, K value at a pH of 2.0.; assay type: ADME; settings: buffer, pH 2
The entries below come with measured k values attached.
quantity.kind: k (s⁻¹)

>>> numeric_value("CC(C)(C)OC(=O)N1C[C@H]2C[C@@]23C1=CC(=O)c1ccccc13")
"1.53e-05"
>>> numeric_value("CC(C)(C)OC(=O)N1C[C@H]2C[C@@]23C1=CC(=O)c1ccc(C#N)cc13")
"7.9e-06"
>>> numeric_value("COc1ccc2c(c1)[C@@]13C[C@@H]1CN(C(=O)OC(C)(C)C)C3=CC2=O")
"1.62e-05"

###

The entries below come with measured k values attached.
assay: Aqueous solvolysis, K value at a pH of 3.0.; type: ADME; conditions: buffer, pH 3
quantity.kind: k

>>> result("COC(=O)c1cc2c([nH]1)C(=O)C=C1N(C(=O)OC(C)(C)C)C[C@H]3C[C@]123")
"1.08e-06 s⁻¹"
>>> result("CNC(=O)N1C[C@H]2C[C@@]23C1=CC(=O)c1ccccc13")
"5.3e-06 s⁻¹"
>>> result("COc1ccc2c(c1)[C@@]13C[C@@H]1CN(C(=O)OC(C)(C)C)C3=CC2=O")
"1.75e-06 s⁻¹"
